meta.source: PubChem BioAssay AID2060508

Each entry below carries its reported viability, T/C.
System: 454973-116-R2-J3-PDC spheroids, viability, % test/control;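 note: spheroids exposed to compounds for seven days; 100% = DMSO vehicle control viability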
assayName: Anticancer human tumor 454973-116-R2-J3-PDC patient-derived pancreatic carcinoma cell line growth inhibition [GQUAD]
experimentalSetup: second compound 3.16 µM; first compound 0.316 µM; stronger effect = lower value; spheroids with HUVEC and MSC

Recorded results for 2 molecules are shown here.
COc1ncnc(C2CC2)c1-c1ncc2cnn(Cc3ccc(-c4nc(C(F)(F)F)cn4C(C)C)cc3)c2n1 + CN(C)c1ccc(Nc2c3ccc(NC(=O)CCN4CCCC4)cc3nc3cc(NC(=O)CCN4CCCC4)ccc23)cc1 ... 105%
CC(C)n1c(=O)n(C)c2cnc3cc(F)c(-c4ccc(OCCCN5CCCCC5)nc4)cc3c21 + Cc1cnc(CNC(=O)c2c(=O)c3ccc(N4CCCN(C)CC4)nc3n3c2sc2ccccc23)cn1 ... 56.1%

# molecule CC(C)n1c(=O)n(C)c2cnc3cc(F)c(-c4ccc(OCCCN5CCCCC5)nc4)cc3c21 + CN(C)c1ccc(Nc2c3ccc(NC(=O)CCN4CCCC4)cc3nc3cc(NC(=O)CCN4CCCC4)ccc23)cc1 ; its viability, T/C = 95.9%
